SYSTEM_TESTED: Serine/threonine-protein kinase BRSK1 (Homo sapiens)
Sequence (whole entry): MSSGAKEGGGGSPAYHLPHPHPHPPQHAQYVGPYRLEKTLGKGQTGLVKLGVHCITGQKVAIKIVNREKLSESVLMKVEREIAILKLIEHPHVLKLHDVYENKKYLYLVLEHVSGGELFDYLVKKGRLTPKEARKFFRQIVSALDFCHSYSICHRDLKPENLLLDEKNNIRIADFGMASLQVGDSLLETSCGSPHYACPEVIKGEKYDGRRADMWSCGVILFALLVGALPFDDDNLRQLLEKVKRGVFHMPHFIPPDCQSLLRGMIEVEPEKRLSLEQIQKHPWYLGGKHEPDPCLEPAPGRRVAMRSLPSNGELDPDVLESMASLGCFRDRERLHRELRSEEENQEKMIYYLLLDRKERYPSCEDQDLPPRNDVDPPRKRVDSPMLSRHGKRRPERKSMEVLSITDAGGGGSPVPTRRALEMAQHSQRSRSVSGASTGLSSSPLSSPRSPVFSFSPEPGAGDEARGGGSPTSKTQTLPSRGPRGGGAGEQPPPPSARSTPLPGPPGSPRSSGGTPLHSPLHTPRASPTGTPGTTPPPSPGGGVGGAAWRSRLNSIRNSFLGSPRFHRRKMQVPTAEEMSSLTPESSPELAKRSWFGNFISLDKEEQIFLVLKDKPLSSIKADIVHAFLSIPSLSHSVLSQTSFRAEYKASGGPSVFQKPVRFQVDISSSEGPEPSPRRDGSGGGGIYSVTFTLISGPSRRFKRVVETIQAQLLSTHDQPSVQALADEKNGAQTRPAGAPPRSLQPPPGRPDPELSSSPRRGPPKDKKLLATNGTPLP
TEST_SETTINGS: at 10 µM
PARAMETER: residual activity (%)

1) COc1cc2ncnc(Nc3ccc(OCc4ccccc4)cc3)c2cc1OC	85
2) CC(C)[C@H](CO)Nc1nc(Nc2cccc(Cl)c2)c2ncn(C(C)C)c2n1	87
3) COc1ccc2c(c1)/C(=C/c1cnc[nH]1)C(=O)N2	8
4) c1cc(-c2cnn3cc(-c4ccc(OCCN5CCCCC5)cc4)cnc23)ccn1	32
5) O=[N+]([O-])/C=C/c1ccc2c(c1)OCO2	104
6) COc1cc(OC)c(/C=C2\C(=O)Nc3ccccc32)c(OC)c1	84

###

SYSTEM_TESTED: Serine/threonine-protein kinase Sgk3 (Homo sapiens)
Sequence (whole entry): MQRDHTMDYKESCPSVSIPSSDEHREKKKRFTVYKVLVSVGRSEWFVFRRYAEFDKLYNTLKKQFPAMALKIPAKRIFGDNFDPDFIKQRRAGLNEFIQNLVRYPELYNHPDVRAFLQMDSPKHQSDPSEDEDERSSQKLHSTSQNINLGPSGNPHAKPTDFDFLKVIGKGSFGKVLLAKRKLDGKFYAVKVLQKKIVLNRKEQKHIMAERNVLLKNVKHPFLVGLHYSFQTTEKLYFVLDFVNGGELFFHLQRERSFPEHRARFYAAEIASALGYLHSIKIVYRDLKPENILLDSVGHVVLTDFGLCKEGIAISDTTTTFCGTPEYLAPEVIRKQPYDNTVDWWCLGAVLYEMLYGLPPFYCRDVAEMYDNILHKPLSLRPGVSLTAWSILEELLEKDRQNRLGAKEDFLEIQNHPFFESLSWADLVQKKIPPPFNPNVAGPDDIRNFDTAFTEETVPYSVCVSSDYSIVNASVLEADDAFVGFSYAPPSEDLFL
TEST_SETTINGS: at 10 µM
residual activity values for the molecules below.
PARAMETER: residual activity (%)

1. COc1ccc2c(c[n+](C)c3c4cc5c(cc4ccc23)OCO5)c1OC	79
2. O=c1[nH]c2ccccc2n1C1CCN(Cc2ccc(-c3nc4cc5[nH]cnc5cc4nc3-c3ccccc3)cc2)CC1	81
3. c1cc(-c2cnn3cc(-c4ccc(OCCN5CCCCC5)cc4)cnc23)ccn1	78
4. O=C1NC(=O)c2c1c1c3ccccc3n3c1c1c2c2ccccc2n1C1CCC3O1	80
5. CCc1nc(-c2ccc(OC)cc2)[nH]c1-c1ccncc1	79

###

Listed below: residual activity values for each entry.
SYSTEM_TESTED: Hepatocyte growth factor receptor (Homo sapiens)
TEST_SETTINGS: at 10 µM
PARAMETER: residual activity (%)

1. COc1ccc2c(c1)/C(=C/c1cnc[nH]1)C(=O)N2	42
2. CC(C)[C@H](CO)Nc1nc(Nc2cccc(Cl)c2)c2ncn(C(C)C)c2n1	73
3. COC(=O)[C@@]1(O)C[C@H]2O[C@]1(C)n1c3ccccc3c3c4c(c5c6ccccc6n2c5c31)C(=O)NC4	13
4. O=C1Nc2ccc3ncsc3c2/C1=C/c1c[nH]cn1	4
5. O=[N+]([O-])/C=C/c1ccc2c(c1)OCO2	96

###

SYSTEM_TESTED: Tyrosine-protein kinase Yes (Homo sapiens) (UniProt P07947)
Sequence (P07947 2-543 limits assumed): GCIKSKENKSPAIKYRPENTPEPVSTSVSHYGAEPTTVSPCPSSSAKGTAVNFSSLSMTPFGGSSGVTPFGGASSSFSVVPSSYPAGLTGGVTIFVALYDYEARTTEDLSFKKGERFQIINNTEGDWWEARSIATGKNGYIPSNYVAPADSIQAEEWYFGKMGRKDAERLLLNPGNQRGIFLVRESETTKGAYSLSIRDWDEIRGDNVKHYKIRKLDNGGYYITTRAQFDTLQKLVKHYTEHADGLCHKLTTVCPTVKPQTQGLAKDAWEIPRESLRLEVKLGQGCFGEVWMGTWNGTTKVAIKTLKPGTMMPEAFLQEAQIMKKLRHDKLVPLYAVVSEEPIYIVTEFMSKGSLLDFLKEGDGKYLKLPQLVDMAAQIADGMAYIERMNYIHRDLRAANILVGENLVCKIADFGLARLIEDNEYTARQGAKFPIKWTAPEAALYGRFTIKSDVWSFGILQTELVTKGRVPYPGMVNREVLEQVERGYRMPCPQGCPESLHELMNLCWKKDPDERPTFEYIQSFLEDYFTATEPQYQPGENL
TEST_SETTINGS: at 1 µM
Rule: Met for residual activity not less than 10%, Not met for anything less.

1) CC(C)[C@H](CO)Nc1nc(Nc2cccc(Cl)c2)c2ncn(C(C)C)c2n1	Not met
2) O=[N+]([O-])/C=C/c1ccc2c(c1)OCO2	Met
3) O=C1Nc2ccc3ncsc3c2/C1=C/c1c[nH]cn1	Met
4) COc1cc2ncnc(Nc3ccc(OCc4ccccc4)cc3)c2cc1OC	Met
5) COC(=O)[C@@]1(O)C[C@H]2O[C@]1(C)n1c3ccccc3c3c4c(c5c6ccccc6n2c5c31)C(=O)NC4	Met
6) CCn1cnc2c(Nc3cccc(Cl)c3)nc(N[C@@H]3CCCC[C@@H]3N)nc21	Not met

###

Overview of reported residual activity across a group of compounds:
SYSTEM_TESTED: Serine/threonine-protein kinase Chk1 (Homo sapiens)
Sequence (whole entry): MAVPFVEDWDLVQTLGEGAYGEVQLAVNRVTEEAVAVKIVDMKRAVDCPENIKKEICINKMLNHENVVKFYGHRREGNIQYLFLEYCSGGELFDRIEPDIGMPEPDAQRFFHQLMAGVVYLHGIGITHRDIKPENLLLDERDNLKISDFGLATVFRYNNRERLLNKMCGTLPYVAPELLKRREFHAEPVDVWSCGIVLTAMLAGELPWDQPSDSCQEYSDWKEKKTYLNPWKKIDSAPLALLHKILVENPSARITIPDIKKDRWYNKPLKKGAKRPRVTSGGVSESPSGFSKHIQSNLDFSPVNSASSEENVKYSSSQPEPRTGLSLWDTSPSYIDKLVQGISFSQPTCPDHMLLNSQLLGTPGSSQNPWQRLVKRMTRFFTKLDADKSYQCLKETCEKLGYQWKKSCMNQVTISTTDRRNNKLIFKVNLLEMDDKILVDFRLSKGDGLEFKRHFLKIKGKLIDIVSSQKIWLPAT
TEST_SETTINGS: at 1 µM
PARAMETER: residual activity (%)

1. COc1ccc2c(c1)/C(=C/c1cnc[nH]1)C(=O)N2	77
2. COc1cc2ncnc(Nc3ccc(OCc4ccccc4)cc3)c2cc1OC	101
3. O=c1[nH]c2ccccc2n1C1CCN(Cc2ccc(-c3nc4cc5[nH]cnc5cc4nc3-c3ccccc3)cc2)CC1	102

###

SYSTEM_TESTED: PAS domain-containing serine/threonine-protein kinase (Homo sapiens)
TEST_SETTINGS: at 1 µM
PARAMETER: residual activity (%)

1) O=C(O)c1ccc2c3c1cccc3c(=O)n1c3ccccc3nc21	111
2) O=C1Nc2ccc(Cl)cc2/C1=C/c1cc(Cl)c(O)c(Cl)c1	111
3) COC(=O)[C@@]1(O)C[C@H]2O[C@]1(C)n1c3ccccc3c3c4c(c5c6ccccc6n2c5c31)C(=O)NC4	14
4) Nc1cccc(-c2cc3c(Oc4cccc(O)c4)ncnc3[nH]2)c1	123
5) O=C(CCCc1ccc(-c2ccccc2F)cc1)Nc1ccc(O)cc1	102
6) Cn1c2ccccc2c2c3c(c4c5ccccc5n(CCC#N)c4c21)CNC3=O	93

###

SYSTEM_TESTED: Serine/threonine-protein kinase NLK (Homo sapiens) (UniProt Q9UBE8)
Sequence (Q9UBE8 whole entry): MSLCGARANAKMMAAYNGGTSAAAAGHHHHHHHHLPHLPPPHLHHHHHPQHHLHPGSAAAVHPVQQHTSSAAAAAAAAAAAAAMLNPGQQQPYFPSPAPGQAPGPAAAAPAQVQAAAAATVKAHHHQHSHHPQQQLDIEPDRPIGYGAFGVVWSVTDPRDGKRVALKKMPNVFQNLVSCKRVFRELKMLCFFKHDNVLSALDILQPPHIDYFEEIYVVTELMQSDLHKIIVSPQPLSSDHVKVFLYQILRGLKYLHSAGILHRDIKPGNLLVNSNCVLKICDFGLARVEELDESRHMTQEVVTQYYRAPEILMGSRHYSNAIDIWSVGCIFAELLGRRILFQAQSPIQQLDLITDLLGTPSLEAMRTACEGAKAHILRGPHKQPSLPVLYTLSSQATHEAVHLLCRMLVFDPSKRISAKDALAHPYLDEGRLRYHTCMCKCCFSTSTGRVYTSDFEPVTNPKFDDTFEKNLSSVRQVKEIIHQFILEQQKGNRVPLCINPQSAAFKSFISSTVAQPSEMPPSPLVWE
TEST_SETTINGS: at 10 µM
PARAMETER: residual activity (%)

1. O=[N+]([O-])/C=C/c1ccc2c(c1)OCO2	95
2. CC(C)[C@H](CO)Nc1nc(Nc2cccc(Cl)c2)c2ncn(C(C)C)c2n1	81
3. COc1ccc2c(c[n+](C)c3c4cc5c(cc4ccc23)OCO5)c1OC	76
4. COc1ccc2c(c1)/C(=C/c1cnc[nH]1)C(=O)N2	19
5. CC(C)(C)c1cc(C=C(C#N)C#N)cc(Br)c1O	53
6. COC(=O)[C@@]1(O)C[C@H]2O[C@]1(C)n1c3ccccc3c3c4c(c5c6ccccc6n2c5c31)C(=O)NC4	10

###

SYSTEM_TESTED: Tyrosine-protein kinase ZAP-70 (Homo sapiens) (UniProt P43403)
Sequence (whole entry): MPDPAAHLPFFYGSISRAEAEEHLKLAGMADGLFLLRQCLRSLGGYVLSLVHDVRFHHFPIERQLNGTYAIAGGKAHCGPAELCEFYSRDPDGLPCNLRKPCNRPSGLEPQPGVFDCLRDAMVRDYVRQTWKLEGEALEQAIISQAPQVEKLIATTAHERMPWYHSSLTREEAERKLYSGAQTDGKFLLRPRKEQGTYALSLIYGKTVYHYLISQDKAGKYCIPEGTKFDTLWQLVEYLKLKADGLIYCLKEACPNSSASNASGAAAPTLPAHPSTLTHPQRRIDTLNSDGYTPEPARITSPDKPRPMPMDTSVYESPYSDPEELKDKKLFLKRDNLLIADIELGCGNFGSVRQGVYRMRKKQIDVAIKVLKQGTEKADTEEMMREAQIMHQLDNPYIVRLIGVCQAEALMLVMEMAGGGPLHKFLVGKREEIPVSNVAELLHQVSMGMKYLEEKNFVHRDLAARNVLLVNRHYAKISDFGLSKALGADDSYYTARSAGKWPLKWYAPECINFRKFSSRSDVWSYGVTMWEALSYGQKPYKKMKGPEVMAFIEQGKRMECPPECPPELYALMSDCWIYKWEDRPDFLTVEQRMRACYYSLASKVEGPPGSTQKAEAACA
TEST_SETTINGS: at 10 µM
Known residual activity of a selection of compounds
PARAMETER: residual activity (%)

1) N#C/C(=C(\N)Sc1ccc(N)cc1)c1ccccc1C(F)(F)F	101
2) Oc1ccc(Nc2nc(-c3ccc(Cl)cc3)cs2)cc1	130
3) CO[C@H]1C[C@@H]2CC[C@@H](C)[C@@](O)(O2)C(=O)C(=O)N2CCCC[C@H]2C(=O)O[C@H]([C@H](C)C[C@@H]2CC[C@@H](O)[C@H](OC)C2)CC(=O)[C@H](C)/C=C(\C)[C@@H](O)[C@@H](OC)C(=O)[C@H](C)C[C@H](C)/C=C/C=C/C=C/1C	121
4) CC(C)n1cnc2c(NCc3ccccc3)nc(NCCCO)nc21	119
5) Nc1n[nH]c2nnc(-c3c(-c4ccccc4)nn4ccccc34)cc12	81
